Data origin, for the record: ChEMBL document CHEMBL1150460

- TARGET SYSTEM: Serotonin 3 (5-HT3) receptor (Rattus norvegicus, UniProt P35563+Q9JJ16)
- ASSAY METHOD TEXT: Displacement of [3H]granisetron from 5-hydroxytryptamine 3 receptor of rat cortex
Threshold check on Ki: strictly below 0.8 nM is Y; on or above 0.8 nM is N.

Please review the following examples before continuing.
{"MOLECULE": "CC(=O)N1CC2CC(NC(=O)N3CC(C)(C)c4ccccc43)CC(C1)N2C (stereo not given)", "TARGET SYSTEM": "Serotonin 3 (5-HT3) receptor (Rattus norvegicus, UniProt P35563+Q9JJ16)", "CATEGORY LABEL": "N"}
{"MOLECULE": "CN1C2CC(NC(=O)c3nn(C)c4ccccc34)CC1CN(Cc1ccccc1)C2 (stereo not given)", "TARGET SYSTEM": "Serotonin 3 (5-HT3) receptor (Rattus norvegicus, UniProt P35563+Q9JJ16)", "CATEGORY LABEL": "Y"}
{"MOLECULE": "CCCCN1CC2CC(NC(=O)N3CC(C)(C)c4ccccc43)CC(C1)N2C (stereo not given)", "TARGET SYSTEM": "Serotonin 3 (5-HT3) receptor (Rattus norvegicus, UniProt P35563+Q9JJ16)", "CATEGORY LABEL": "N"}

With those in mind, consider the next molecule.
Problem: Is 0.8 nM strictly greater than the molecule's reported Ki? molecule: CCCN1CC2CC(NC(=O)c3nn(C)c4ccccc34)CC(C1)N2C (stereo not given)
Solution: N

###

- TARGET SYSTEM: Serotonin 3 (5-HT3) receptor (Rattus norvegicus, UniProt P35563+Q9JJ16)
- Sequence (P35563 whole entry): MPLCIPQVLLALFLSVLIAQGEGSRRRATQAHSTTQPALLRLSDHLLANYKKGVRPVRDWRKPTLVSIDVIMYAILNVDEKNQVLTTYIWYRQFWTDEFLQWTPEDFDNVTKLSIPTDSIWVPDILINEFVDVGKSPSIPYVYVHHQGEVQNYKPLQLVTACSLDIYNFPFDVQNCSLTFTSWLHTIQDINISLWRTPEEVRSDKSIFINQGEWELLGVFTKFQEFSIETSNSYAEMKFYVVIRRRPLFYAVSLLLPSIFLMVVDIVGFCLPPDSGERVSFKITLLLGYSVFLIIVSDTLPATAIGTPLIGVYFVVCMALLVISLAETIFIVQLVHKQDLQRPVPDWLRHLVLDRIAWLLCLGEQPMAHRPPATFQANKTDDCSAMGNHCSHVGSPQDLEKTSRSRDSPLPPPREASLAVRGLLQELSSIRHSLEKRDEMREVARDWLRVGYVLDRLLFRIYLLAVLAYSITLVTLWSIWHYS
- Sequence (Q9JJ16 whole entry): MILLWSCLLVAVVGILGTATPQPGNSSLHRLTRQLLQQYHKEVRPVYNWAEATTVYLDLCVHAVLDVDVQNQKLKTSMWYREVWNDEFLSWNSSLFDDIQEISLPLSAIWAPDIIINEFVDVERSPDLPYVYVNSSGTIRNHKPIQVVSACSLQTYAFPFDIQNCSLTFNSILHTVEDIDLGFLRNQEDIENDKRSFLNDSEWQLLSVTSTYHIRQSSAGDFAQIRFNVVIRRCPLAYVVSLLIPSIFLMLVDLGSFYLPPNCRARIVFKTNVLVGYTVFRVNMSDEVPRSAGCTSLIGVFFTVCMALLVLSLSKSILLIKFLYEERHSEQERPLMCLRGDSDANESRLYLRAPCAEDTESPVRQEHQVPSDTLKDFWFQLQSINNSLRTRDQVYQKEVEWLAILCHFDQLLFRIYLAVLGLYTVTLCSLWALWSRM
- ASSAY METHOD TEXT: Displacement of [3H]granisetron from 5-hydroxytryptamine 3 receptor of rat cortex
REPORTED PROPERTY: pKi
Note on units: pKi is unitless, being -log10 of a concentration expressed in mol/L.

{"COMPOUND": "CCN1CC2CC(NC(=O)c3nn(C)c4ccccc34)CC(C1)N2C (stereo not drawn)", "pKi": 8.80}
{"COMPOUND": "CCCCN1CC2CC(NC(=O)c3nn(C)c4ccccc34)CC(C1)N2C (stereo not drawn)", "pKi": 8.60}
{"COMPOUND": "CC(C)N1CC2CC(NC(=O)N3CC(C)(C)c4ccccc43)CC(C1)N2C (stereo not drawn)", "pKi": 8.90}
{"COMPOUND": "CC(C)CN1CC2CC(NC(=O)c3nn(C)c4ccccc34)CC(C1)N2C (stereo not drawn)", "pKi": 8.50}
{"COMPOUND": "CN1C2CNCC1CC(NC(=O)N1CC(C)(C)c3ccccc31)C2 (stereo not drawn)", "pKi": 9.00}
{"COMPOUND": "CN1CC2CC(NC(=O)N3CC(C)(C)c4ccccc43)CC(C1)N2C (stereo not drawn)", "pKi": 9.00}
{"COMPOUND": "CCN1CC2CC(NC(=O)N3CC(C)(C)c4ccccc43)CC(C1)N2C (stereo not drawn)", "pKi": 8.60}

Shift focus to the following entry.
Problem: Using known records, supply pKi for CN1C2CC(NC(=O)N3CC(C)(C)c4ccccc43)CC1CN(C(=O)c1ccccc1)C2 (stereo not drawn)
Solution: 8.00

###

- TARGET SYSTEM: Serotonin 3 (5-HT3) receptor (Rattus norvegicus) (UniProt P35563+Q9JJ16)
- ASSAY METHOD TEXT: Inhibition of the von Bezold-Jarisch reflex bradycardia induced by an iv bolus injection of 5-HT
- Assay type: functional, organism-based
REPORTED PROPERTY: Inhibitory dose (µg/kg)
Record the value in µg/kg, omitting the unit from your answer.

{"COMPOUND": "CCN1CC2CC(NC(=O)N3CC(C)(C)c4ccccc43)CC(C1)N2C (centres undefined)", "RECORDED NUMBER": 0.6}
{"COMPOUND": "CC(C)N1CC2CC(NC(=O)N3CC(C)(C)c4ccccc43)CC(C1)N2C (centres undefined)", "RECORDED NUMBER": 0.43}
{"COMPOUND": "CN1C2CC(NC(=O)N3CC(C)(C)c4ccccc43)CC1CN(Cc1ccccc1)C2 (centres undefined)", "RECORDED NUMBER": 1.8}
{"COMPOUND": "CN1C2CC(NC(=O)c3nn(C)c4ccccc34)CC1CN(c1ccccc1)C2 (centres undefined)", "RECORDED NUMBER": 3}
{"COMPOUND": "CCN1CC2CC(NC(=O)c3nn(C)c4ccccc34)CC(C1)N2C (centres undefined)", "RECORDED NUMBER": 0.8}
{"COMPOUND": "CN1C2CC(NC(=O)c3nn(C)c4ccccc34)CC1CN(Cc1ccccc1)C2 (centres undefined)", "RECORDED NUMBER": 0.16}

Problem: State, in one line, measured Inhibitory dose of COc1cc(N)c(Cl)cc1C(=O)NC1CC2CN(C)CC(C1)N2C (centres undefined)
Solution: 2.5

Problem: Return reported Inhibitory dose. Input compound: COc1cc(N)c(Cl)cc1C(=O)NC1CC2CN(Cc3ccccc3)CC(C1)N2C (centres undefined)
Solution: 0.5

Problem: Please give measured Inhibitory dose of the following entry: CN1C2CCCC1CC(NC(=O)c1nn(C)c3ccccc13)C2 (centres undefined)
Solution: 0.7
